assay_text: growth suppression of yeast trafficking mutant, preliminary HTS, modulators of trafficking downstream of Golgi apparatus project, 1536-format plate, OD 615 nm (AID 637)
stated_conditions: yeast transport mutant growth, absorbance 615 nm, 18 h; hits give high values
Activity calls are given as the source filed them. No stated cut-off is given here; in the data, active means inhibition above about 30%; inactive means the rest.
readout_label: inhibition

Some solved cases for reference:
Give its inhibition value. Item: `COc1ccc(-c2nc(C(N)=O)c3[nH]c(=O)n(-c4cccc(Cl)c4)c3n2)cc1OC` -0.33% (inactive)

Give its inhibition value. Item: O=C(CCCN1C(=O)c2ccccc2C1=O)N1CCC(c2ccccc2)C1 (stereo not given) 0.33% (inactive)

Give its inhibition value. Item: CC1Cc2ccccc2N1C(=O)CSc1nc2ccccc2n1CC(=O)N1CCOCC1 (stereo not given) 3.77% (inactive)

Further cases:
Give its inhibition value. Item: `Cc1cc(C)cc(C(=O)N2CCC(C(N)=O)CC2)c1` 0% (inactive)

Give its inhibition value. Item: CN1CC=C2C(C#N)=C(N)C(C#N)(C#N)[C@H](c3cccc(Cl)c3)C2C1 (stereo not given in full) -1.9% (inactive)

The measurements presented in this section are drawn from PubChem BioAssay.
